experiment.summary: Phase 1 single-dose plasma pharmacokinetics in subjects with normal hepatic function, mild or moderate hepatic impairment
Format: in vivo, human
protocol.conditions: human, plasma, po, 200 mg, Moderate Hepatic Impairment; 24 h; 200 mg single oral dose; read-out: Plasma concentration, Geometric Mean

# compound.smiles, quantity.unit, concentration at 24 h
records = [
    ("N#CC1(c2ccc(NC(=O)c3cccnc3NCc3ccncc3)cc2)CCCC1", "ng/mL", 38.7),
]

---

experiment.summary: Phase 1 single-dose plasma pharmacokinetics in subjects with normal hepatic function, mild or moderate hepatic impairment
Assay type: in vivo, human
protocol.conditions: human, plasma, oral, 200 mg, Moderate vs Normal: matched Normal hepatic function; paired analysis; read-out: Cmax, Geometric Least Squares Mean, Reference
measure: Cmax (ng/mL)

# compound.smiles, measure, quantity.unit, readout.number
measured = [
    ("N#CC1(c2ccc(NC(=O)c3cccnc3NCc3ccncc3)cc2)CCCC1", "Cmax", "ng/mL", 247),
]

---

experiment.summary: Phase 1 single-dose plasma pharmacokinetics in subjects with normal hepatic function, mild or moderate hepatic impairment
Assay type: in vivo, human
protocol.conditions: human, plasma, po, 200 mg, Mild Hepatic Impairment; 200 mg single oral dose; read-out: VZ/F, Median

# compound.smiles, quantity.unit, Vd/F
data = [
    ("N#CC1(c2ccc(NC(=O)c3cccnc3NCc3ccncc3)cc2)CCCC1", "L", 1100),
]

---

experiment.summary: Phase 1 single-dose plasma pharmacokinetics in subjects with normal hepatic function, mild or moderate hepatic impairment
Format: in vivo, human
protocol.conditions: human, plasma, po, 200 mg, Mild Hepatic Impairment; 2 h; 200 mg single oral dose; read-out: Plasma concentration, Arithmetic Mean
Source text: Patients: 27 subjects were enrolled within the following groups based on their Child-Pugh (CP) classification score: • Group 1: Matched-control healthy subjects with normal hepatic function; • Group 2: Subjects with mild hepatic impairment (CP Class A, score of 5 or 6); • Group 3: Subjects with moderate hepatic impairment (CP Class B, score of 7 to 9). A parallel design strategy was adopted for the hepatic impairment groups. […]
measure: concentration at 2 h (ng/mL)

# compound.smiles, readout.number
data = [
    ("N#CC1(c2ccc(NC(=O)c3cccnc3NCc3ccncc3)cc2)CCCC1", 279),
]

---

experiment.summary: Phase 1 single-dose plasma pharmacokinetics in subjects with normal hepatic function, mild or moderate hepatic impairment
Type: in vivo, human
protocol.conditions: human, plasma, po, 200 mg, Moderate Hepatic Impairment; 24 h; 200 mg single oral dose; read-out: Plasma concentration, Median
measure: concentration at 24 h (ng/mL)

# compound.smiles, readout.number
data = [
    ("N#CC1(c2ccc(NC(=O)c3cccnc3NCc3ccncc3)cc2)CCCC1", 36.5),
]

---

experiment.summary: Phase 1 single-dose plasma pharmacokinetics in subjects with normal hepatic function, mild or moderate hepatic impairment
Assay type: in vivo, human
protocol.conditions: human, plasma, po, 200 mg, Normal Hepatic Function; 200 mg single oral dose; read-out: tmax, Arithmetic Mean
measure: Tmax (h)

# compound, quantity.unit, readout.number
data = [
    ("N#CC1(c2ccc(NC(=O)c3cccnc3NCc3ccncc3)cc2)CCCC1 [Rivoceranib]", "h", 2.5),
]

---

experiment.summary: Phase 1 single-dose plasma pharmacokinetics in subjects with normal hepatic function, mild or moderate hepatic impairment
Format: in vivo, human
protocol.conditions: human, plasma, po, 200 mg, Mild Hepatic Impairment; 200 mg single oral dose; read-out: AUC0-∞, Median
measure: AUC(0-inf) (ng·h/mL)

# compound.smiles, readout.number
measured = [
    ("N#CC1(c2ccc(NC(=O)c3cccnc3NCc3ccncc3)cc2)CCCC1", 2140),
]
